Give viability, T/C for every item shown.
# Test system: KRAS patient-derived spheroids with HUVEC/MSC, viability;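 note: spheroids exposed to agents for 7 days; 100% = DMSO vehicle control viability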
# Procedure Summary: Anticancer human tumor 323965-272-R-J2-PDC patient-derived pancreatic carcinoma cell line growth inhibition [KRAS2]
# Settings: second compound 1 µM; first compound 1 µM; stronger effect = lower value
// note: answer is a bare numeric in %

Measured viability, T/C of CC(C)NCC(C(=O)N1CCN(c2ncnc3c2C(C)CC3O)CC1)c1ccc(Cl)cc1 (stereo not given) + C=CC(=O)N1CCN(c2nc(=O)n(-c3c(C)ccnc3C(C)C)c3nc(-c4c(O)cccc4F)c(F)cc23)C(C)C1 : 29.8

Measured viability, T/C of CC1OCC2(CCN(c3cnc(Sc4ccnc(N)c4Cl)c(N)n3)CC2)C1N (stereo not given) + COc1cc2nc(C)nc(NC(C)c3cc(N)cc(C(F)(F)F)c3)c2cc1OC1CCOC1 : 24.7

Measured viability, T/C of COc1cc2nccc(Oc3ccc(NC(=O)C4(C(=O)Nc5ccc(F)cc5)CC4)cc3)c2cc1OC + CC1OCC2(CCN(c3cnc(Sc4ccnc(N)c4Cl)c(N)n3)CC2)C1N : 58.4

Measured viability, T/C of CCN1CCN(Cc2ccc(Nc3ncc(F)c(-c4cc(F)c5nc(C)n(C(C)C)c5c4)n3)nc2)CC1 + CC1OCC2(CCN(c3cnc(Sc4ccnc(N)c4Cl)c(N)n3)CC2)C1N : 35.3

Measured viability, T/C of O=C(c1cc(Cc2n[nH]c(=O)c3ccccc23)ccc1F)N1CCN(C(=O)C2CC2)CC1 + CC1OCC2(CCN(c3cnc(Sc4ccnc(N)c4Cl)c(N)n3)CC2)C1N : 101

Measured viability, T/C of CC1(C)CCC(CN2CCN(c3ccc(C(=O)NS(=O)(=O)c4ccc(NCC5CCOCC5)c([N+](=O)[O-])c4)c(Oc4cnc5[nH]ccc5c4)c3)CC2)=C(c2ccc(Cl)cc2)C1 + C=CC(=O)N1CCN(c2nc(OCC3CCCN3C)nc3c2CCN(c2cccc4cccc(C)c24)C3)CC1CC#N : 51.2

Measured viability, T/C of CC1OCC2(CCN(c3cnc(Sc4ccnc(N)c4Cl)c(N)n3)CC2)C1N (stereo not given) + C=CC(=O)N1CCN(c2nc(=O)n(-c3c(C)ccnc3C(C)C)c3nc(-c4c(O)cccc4F)c(F)cc23)C(C)C1 : 17.6

Measured viability, T/C of CC(=O)OC12COC1CC(O)C1(C)C(=O)C(O)C3=C(C)C(OC(=O)C(O)C(NC(=O)OC(C)(C)C)c4ccccc4)CC(O)(C(OC(=O)c4ccccc4)C21)C3(C)C (stereo not given) + CC1OCC2(CCN(c3cnc(Sc4ccnc(N)c4Cl)c(N)n3)CC2)C1N : 37.2

Measured viability, T/C of CC1(C)CCC(CN2CCN(c3ccc(C(=O)NS(=O)(=O)c4ccc(NCC5CCOCC5)c([N+](=O)[O-])c4)c(Oc4cnc5[nH]ccc5c4)c3)CC2)=C(c2ccc(Cl)cc2)C1 + COc1cc2nc(C)nc(NC(C)c3cc(N)cc(C(F)(F)F)c3)c2cc1OC1CCOC1 : 60.3

Measured viability, T/C of CCNC(=O)CC1N=C(c2ccc(Cl)cc2)c2cc(OC)ccc2-n2c(C)nnc21 (stereo not given) + CNCc1ccccc1-c1csc(C(C)Nc2nc(C)nc3cc(OC)c(OC)cc23)c1 : 40.1
